These entries and their values trace back to patent US20240336686A1.

# target-system: T1, human SIRPα v2 on CHOK1 cells (human, UniProt P78324 31-504)
# T1 construct: whole, on cells; also called CHOK1-hSIRPα v2; cell surface human SIRPα v2
# T1 sequence (P78324 other isoform, or with tags, fused parts or gaps limits assumed): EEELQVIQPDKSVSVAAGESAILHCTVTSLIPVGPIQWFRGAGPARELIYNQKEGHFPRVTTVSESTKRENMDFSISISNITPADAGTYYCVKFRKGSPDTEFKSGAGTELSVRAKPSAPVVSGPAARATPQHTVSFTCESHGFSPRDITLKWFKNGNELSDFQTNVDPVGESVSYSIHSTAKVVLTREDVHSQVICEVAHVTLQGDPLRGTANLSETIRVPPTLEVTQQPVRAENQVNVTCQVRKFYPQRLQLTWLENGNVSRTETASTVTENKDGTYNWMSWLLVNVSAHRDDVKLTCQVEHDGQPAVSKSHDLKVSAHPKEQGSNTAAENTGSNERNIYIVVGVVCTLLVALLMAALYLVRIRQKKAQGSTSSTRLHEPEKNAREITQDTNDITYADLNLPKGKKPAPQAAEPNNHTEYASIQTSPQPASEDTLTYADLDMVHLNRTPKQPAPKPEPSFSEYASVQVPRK
# assay-text: FACS, CHOK1 cells stably expressing human SIRPα v2
Each entry below lists one item and its recorded TOP MFI value.
Expressed in MFI, but write only the number.

Consider the worked cases shown below.
Anti-SIRPα antibody C73 (antibody, human IgG4, V domains shown, Mouse variable regions; also called 073c; 073C) VH: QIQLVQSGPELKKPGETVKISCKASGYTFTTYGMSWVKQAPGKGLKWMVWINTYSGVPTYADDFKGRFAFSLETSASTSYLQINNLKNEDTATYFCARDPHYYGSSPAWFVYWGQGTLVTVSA VL: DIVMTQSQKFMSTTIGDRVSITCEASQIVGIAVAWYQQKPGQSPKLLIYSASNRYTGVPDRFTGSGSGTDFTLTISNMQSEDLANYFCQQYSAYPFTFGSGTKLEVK :: 47300
Anti-SIRPα antibody C15 (antibody, V domains shown, Mouse variable regions; tested as purified chimeric antibody; also called 015c) VH: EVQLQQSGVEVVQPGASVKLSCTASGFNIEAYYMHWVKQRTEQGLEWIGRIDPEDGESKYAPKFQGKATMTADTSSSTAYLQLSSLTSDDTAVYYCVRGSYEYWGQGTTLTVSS VL: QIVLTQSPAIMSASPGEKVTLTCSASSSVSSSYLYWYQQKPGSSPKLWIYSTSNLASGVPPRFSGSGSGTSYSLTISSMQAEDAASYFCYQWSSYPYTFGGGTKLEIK :: 50100

*Q* I would be grateful if you could share the reported TOP MFI for Anti-SIRPα antibody C25 (antibody, V domains shown, Mouse variable regions; also called 025c; 025) VH: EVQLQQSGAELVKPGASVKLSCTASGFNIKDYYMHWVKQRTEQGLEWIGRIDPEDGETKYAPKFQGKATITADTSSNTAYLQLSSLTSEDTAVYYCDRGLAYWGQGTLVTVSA VL: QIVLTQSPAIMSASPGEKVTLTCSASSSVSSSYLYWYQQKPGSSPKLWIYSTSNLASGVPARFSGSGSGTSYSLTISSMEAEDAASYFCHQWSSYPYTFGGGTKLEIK .
*A* 51600
